Value source: the RNAGym collection of RNA variant scans (doi:10.7554/elife.80360)

Each entry below carries its recorded self-cleavage.
B1: HDV Ribozyme (parent)
chain: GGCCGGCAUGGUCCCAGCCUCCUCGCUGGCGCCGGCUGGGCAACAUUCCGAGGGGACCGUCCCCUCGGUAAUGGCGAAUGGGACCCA

variants of: B1; test: self-cleavage, relative activity (ratio to wild type); higher = more cleavage; co-transcriptional
Keep it simple and answer with nothing but the number.

See these solved cases before continuing.
[
  {
    "Variant string": "C21U C66G",
    "self-cleavage": 0.277
  },
  {
    "Variant string": "U47G G74U",
    "self-cleavage": 0.434
  },
  {
    "Variant string": "G38C C62U",
    "self-cleavage": 0.197
  },
  {
    "Variant string": "U69C U72C",
    "self-cleavage": 0.9
  },
  {
    "Variant string": "A56G C58G",
    "self-cleavage": 0.911
  }
]

Query: Entry under review: G6C G53U . Reported self-cleavage?
Result: 0.138

Query: Entry under review: C14A C57A . Reported self-cleavage?
Result: 0.745
